Biological target: FTO (Homo sapiens (Human))
Sequence (Q9C0B1 whole entry): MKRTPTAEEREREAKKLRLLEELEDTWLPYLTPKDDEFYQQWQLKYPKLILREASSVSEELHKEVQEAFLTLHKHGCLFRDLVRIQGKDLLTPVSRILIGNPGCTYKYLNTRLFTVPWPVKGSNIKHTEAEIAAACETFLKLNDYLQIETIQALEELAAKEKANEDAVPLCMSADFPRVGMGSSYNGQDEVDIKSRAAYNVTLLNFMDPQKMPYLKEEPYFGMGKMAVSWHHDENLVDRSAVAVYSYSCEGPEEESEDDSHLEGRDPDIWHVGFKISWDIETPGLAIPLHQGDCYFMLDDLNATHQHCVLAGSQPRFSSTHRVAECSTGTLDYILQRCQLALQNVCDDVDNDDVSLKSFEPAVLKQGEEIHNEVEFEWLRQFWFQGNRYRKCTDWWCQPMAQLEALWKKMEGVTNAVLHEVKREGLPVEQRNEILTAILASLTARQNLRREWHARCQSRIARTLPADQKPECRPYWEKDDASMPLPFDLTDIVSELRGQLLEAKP
Assay: Fluorescence enzymatic inhibition assay (m6A7-Broccoli RNA / DFHBI-1T) against FTO
Format: biochemical
Details: Table 800 compounds; read-out: FTO IC50
Here, each record is paired with measured IC50 data.

Some solved entries appear below for comparison.
CC(=O)c1ccc(S(=O)(=O)NCC2CCCOC2)cc1 (centres unmarked): > 40 µM
C[C@@H](NS(=O)(=O)c1ccc(OC(F)(F)F)cc1)c1cccnc1: 285 µM
O=S(=O)(Nc1cccs1)c1ccc(OC(F)(F)F)cc1: > 40 µM
Cc1ccc(NS(=O)(=O)c2ccc(OC(F)(F)F)cc2)cc1C: > 40 µM

Continue with the compound presented below.
Consider O=S(=O)(Nc1cc(Cl)ccc1O)c1ccc(OC(F)(F)F)cc1 . Its measured IC50 is > 40 µM

----------
Target: ALKBH5 (Homo sapiens (Human))
Sequence (Q6P6C2 whole entry): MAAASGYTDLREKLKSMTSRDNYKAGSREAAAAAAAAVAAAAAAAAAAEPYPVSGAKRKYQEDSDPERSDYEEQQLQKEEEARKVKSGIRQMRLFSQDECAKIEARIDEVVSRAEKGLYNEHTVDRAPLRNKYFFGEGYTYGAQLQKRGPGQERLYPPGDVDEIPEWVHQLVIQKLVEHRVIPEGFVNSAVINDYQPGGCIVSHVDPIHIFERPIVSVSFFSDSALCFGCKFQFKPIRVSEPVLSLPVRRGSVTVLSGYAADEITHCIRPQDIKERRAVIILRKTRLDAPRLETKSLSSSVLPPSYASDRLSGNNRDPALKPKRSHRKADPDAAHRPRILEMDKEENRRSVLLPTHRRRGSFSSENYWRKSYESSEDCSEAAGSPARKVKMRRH
Experiment: Fluorescence enzymatic inhibition assay (m6A7-Broccoli RNA / DFHBI-1T) against ALKBH5
Assay type: biochemical
Settings: highest concentration measured
ENDPOINT LABEL: inhibition of ALKBH5 at the highest concentration measured

Oc1ccc2cc(-c3cncnc3)ccc2c1: no measurable inhibition
COc1ccc2cc(-c3cncnc3)ccc2c1: no measurable inhibition
COc1ccc2cc(-c3cnc(N)nc3)ccc2c1: no measurable inhibition
COCCNc1ncc(-c2ccc(OCc3ccccc3)cc2)cn1: no measurable inhibition

Consider Cc1ccc2cc(-c3cncnc3)ccc2n1 . Its measured inhibition of ALKBH5 at the highest concentration measured is no measurable inhibition

----------
Molecular target: FTO (Homo sapiens (Human))
Assay: Fluorescence enzymatic inhibition assay (m6A7-Broccoli RNA / DFHBI-1T) against FTO
Assay type: biochemical
Settings: read-out: Enzymatic IC50 FTO
pIC50: −log10 of the molar value.
ENDPOINT LABEL: pIC50

Some solved entries appear below for comparison.
COc1ccccc1C(=O)N1CC(Oc2ccccc2)CC1C(=O)NCc1cccnc1 (centres unmarked): 6.77
COc1ccccc1C(=O)N1CC(Oc2ccccc2)CC1C(=O)Nc1ccccc1SC (centres unmarked): 4.99

a = COc1ccc(CNC(=O)C2CC(Oc3ccccc3)CN2C(=O)c2ccccc2OC)c(OC)c1 (centres unmarked)
b = COc1cc(NC(=O)C2CC(Oc3ccccc3)CN2C(=O)c2ccccc2OC)cc(OC)c1 (centres unmarked)
Challenge: Looking only at measured pIC50, which entry is lower, a or b ? Output the label that corresponds to your choice.
Response given: a
(a: 5.18, b: 6.21)

----------
Molecular target: YTHDF2 (Homo sapiens (Human))
Sequence (Q9Y5A9 whole entry): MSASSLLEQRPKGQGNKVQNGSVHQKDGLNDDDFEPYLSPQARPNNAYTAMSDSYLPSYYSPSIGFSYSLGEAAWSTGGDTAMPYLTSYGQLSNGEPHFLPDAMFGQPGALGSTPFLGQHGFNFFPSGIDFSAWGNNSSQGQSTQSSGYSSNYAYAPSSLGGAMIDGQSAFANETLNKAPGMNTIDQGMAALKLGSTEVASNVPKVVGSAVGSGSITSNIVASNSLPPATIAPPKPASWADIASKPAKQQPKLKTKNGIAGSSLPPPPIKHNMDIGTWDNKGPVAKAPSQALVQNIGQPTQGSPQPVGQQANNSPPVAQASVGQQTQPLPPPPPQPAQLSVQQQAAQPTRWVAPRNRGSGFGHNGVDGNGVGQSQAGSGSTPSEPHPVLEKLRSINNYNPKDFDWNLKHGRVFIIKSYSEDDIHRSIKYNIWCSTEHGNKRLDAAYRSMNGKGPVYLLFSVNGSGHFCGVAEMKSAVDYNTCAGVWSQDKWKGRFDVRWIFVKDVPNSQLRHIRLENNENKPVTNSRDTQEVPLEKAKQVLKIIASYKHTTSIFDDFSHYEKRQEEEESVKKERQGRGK
Experiment: In vitro FRET assay for binding affinities of YTH inhibitors, YTHDF2
Details: read-out: Ki YTHDF2
ENDPOINT LABEL: Ki (nM)

CN(C)Cc1ccc(NCc2ccc(F)cc2)nc1 [TR-YTH-19]: 0.107

1 = COc1ccc(CNc2ccc(CN(C)C)cn2)cc1 [TR-YTH-16]
2 = COc1ccc(CNc2ccc(CNC3CC3)cn2)cc1 [TR-YTH-01]
3 = c1cncc(CNc2ccc(CNC3CC3)cn2)c1 [TR-YTH-05]
4 = Fc1ccc(CNc2ccc(CNC3CC3)cn2)cc1F [TR-YTH-06]
Challenge: In this exercise, place the 4 molecules in ascending sequence of their recorded Ki. Answer format: list of labels, ordered as asked.
Response given: 3, 2, 1, 4
(3: 0.07 nM, 2: 0.102 nM, 1: 0.179 nM, 4: 0.395 nM)

Data provenance: patent US20230322715A1
